System name: pooled human IgG
Observed property: Enzyme Activity Endpoint Assay: scIgG (ng/µL)

- Protein: "PRT-529 (protein) MANQEIRYSEETPKTITSVWTKGVTPPTDFIKNEDVLHAPYIANQGWYDITKTFNGKDDLLCGAATAGNMLHWWFDQNKEEIENYLKKHPEKQKINFNGEQMFDVKEAIDTKDSQTDSALFEYFKDKAFPNLSTKHLGVMPDLVLDMFINGYYLSLGKHGPTPVKRGTKDPRGGIFDAVFTRGDQTKLLTARHDFKEKTLNEISDLIKQELTEGKALALSHTYANVRINHVINLWGADFNSEGNLEAIYVTDSDSNASIGMKKYYVGVNAAGKVAISAKEIEGDNIGAQVLGLFTLSTGQDIWEQTNLEHHHHHH"
  Unit symbol: "ng/µL"
  Recorded number: 350
- Protein: "PRT-579 (protein) MANQEIRYSKATPSHITSVWTKGVTPPENFIYNEDVLHAPYLPNQGWYDITKTFNGKDDLLCGAATAGNMLHWWFDQNKEQIERYLKEHPEKQKINFNGEQMFDVKEAIDTKDSQTNSKLFEYFKDKAFPYLSTKHLGVFPDHVIDMFINGYRLSLTNHGPTPVKEQNKDPRGGIFDAVFTRGDQSKLLTSRHDFKEKTLNEISQLIKQELTEGKALGLSHTYANVRINHVINLWGADFNAEGNLEAIYVTDSDSNASIGMKKYYVGVNSAGKVAISAKEIEGDNIGAQVLGLFTLSTGQDIWQQTNLEHHHHHH"
  Unit symbol: "ng/µL"
  Recorded number: 0
- Protein: "PRT-569 (protein) MANQEIRYSKATPSHITSVWTKGVTPPEQFIYNEDVLHAPYIANQGWYDITKTFNGKDDLLCGAATAGNMLHWWFDQNKEQIENYLKKHPEKQKINFNGEQMFDVKEAIDTKDSQTNSALFSYFKDKAFPYLSTKHLGVFPDHVIDMFINGYRLSLTNHGPTPVKEQTKDPRGGIFDAVFTRGDQSKLLTSRHDFKEKTLNEISQLIKQELTEGKALGLSHTYANVRINHVINLWGADFNAEGNLEAIYVTDSDSNASIGMKKYYVGVNSAGKVAISAKEIEGDNIGAQVLGLFTLSTGQDIWQQTNLEHHHHHH"
  Unit symbol: "ng/µL"
  Recorded number: 0
- Protein: "PRT-2 (protein) MANQEIRYSEVTPYHVTSVWTKGVTPPAKFTQGEDVFHAPYVANQGWYDITKTFNGKDDLLCGAATAGNMLHWWFDQNKEKIEAYLKKHPDKQKIMFGDQELLDVRKVINTKGDQTNSELFNYFRDKAFPGLSARRIGVMPDLVLDMFINGYYLNVYKTQTTDVNRTYQEKDRRGGIFDAVFTRGDQSKLLTSRHDFKEKNLKEISDLIKKELTEGKALGLSHTYANVRINHVINLWGADFDSNGNLKAIYVTDSDSNASIGMKKYFVGVNSAGKVAISAKEIKEDNIGAQVLGLFTLSTGQDSWNQTN"
  Unit symbol: "ng/µL"
  Recorded number: 0

Where do these numbers come from? They come from patent US20250027068.
